Measured values drawn from patent US7994209B2 for this set.

Assignment: determine reported Ki for the given compounds.
ASSAY SYSTEM: hSERT (Homo sapiens)
ASSAY TEXT: hSERT membrane radioligand binding assay (3H-citalopram), Assay 1
TEST CONDITIONS: SERT pKi, hSERT HEK-293 membranes, 1.0 nM 3H-citalopram; values given as lower bounds

# input Need Ki, item `CCc1cc(F)ccc1O[C@@H](C1CC1)[C@H]1CCNC1`
# output ≤ 10 nM

# input Look up Ki: `Cc1ccc(O[C@H](C2CC2)[C@@H]2CCNC2)c(Br)c1`
# output ≤ 10 nM

# input Query (compound): `CC(C)C[C@H](Oc1ccc(Cl)c(F)c1F)[C@H]1CCNC1` ; field requested: Ki
# output ≤ 10 nM

# input Please look up its Ki: `CCC[C@H](Oc1ccccc1Cl)[C@H]1CCNC1`
# output ≤ 10 nM

# input // lookup Ki for `CCOc1cc(Cl)ccc1O[C@H](C1CC1)[C@H]1CCNC1`
# output ≤ 10 nM

# input What value of Ki has been reported for the following compound? `CC[C@H](Oc1c(F)cccc1F)[C@H]1CCNC1`
# output ≤ 100 nM

# input Item `Cc1ccc(O[C@H](C2CC2)[C@H]2CCNC2)c(F)c1F` has what recorded Ki?
# output ≤ 10 nM

# input What value of measured Ki is listed for `CC[C@H](Oc1ccc(Cl)cc1Cl)[C@H]1CCNC1` ?
# output ≤ 10 nM

# input Could you tell me which Ki is on file for CC(C)C(Oc1ccc(Cl)cc1C(F)(F)F)C1CCNC1 (centres unmarked) ?
# output ≤ 10 nM

# input # lookup: Ki of CC(C)C(Oc1ccccc1F)C1CCNC1 (centres unmarked)
# output ≤ 100 nM

# input # Ki lookup, item CC(C)CC(Oc1c(F)ccc(Cl)c1Cl)C1CCNC1 (centres unmarked)
# output ≤ 10 nM

# input Item C#CC(Oc1c(Cl)ccc(Cl)c1Cl)[C@H]1CCNC1 (some centres unmarked) has what recorded Ki?
# output ≤ 10 nM

# input Recorded Ki for `Fc1ccc(Cl)c(F)c1O[C@@H](C1CC1)[C@H]1CCNC1` , please?
# output ≤ 10 nM

# input Data request, read-out Ki, for `COc1c(F)ccc(O[C@@H](C2CC2)[C@H]2CCNC2)c1F`
# output ≤ 10 nM

# input Query (compound): `CCC[C@@H](Oc1ccc(Cl)cc1Cl)[C@@H]1CCNC1` ; field requested: Ki
# output ≤ 10 nM

# input Can you share its Ki? I mean this compound: CC(C)CC(Oc1cccc(F)c1)C1CCNC1 (centres unmarked)
# output ≤ 10 nM

# input What does the data say about its Ki? Entry: `CSc1cccc(O[C@@H](C2CC2)[C@H]2CCNC2)c1`
# output ≤ 10 nM

# input Can you look up the measured Ki of `CC(C)C[C@H](Oc1cc(F)c(F)cc1F)[C@H]1CCNC1` for me?
# output ≤ 10 nM

# input What value of Ki has been recorded for this entry: `CC(=O)c1c(F)cccc1O[C@@H](CC(C)C)[C@H]1CCNC1`
# output ≤ 100 nM

# input // Ki lookup, key: `CC(C)[C@H](Oc1cccc(Cl)c1Cl)[C@H]1CCNC1`
# output ≤ 10 nM

----------
Would you kindly list IC50 for each of these compounds?
ASSAY SYSTEM: hNET (Homo sapiens, UniProt P23975)
Sequence (P23975 whole entry): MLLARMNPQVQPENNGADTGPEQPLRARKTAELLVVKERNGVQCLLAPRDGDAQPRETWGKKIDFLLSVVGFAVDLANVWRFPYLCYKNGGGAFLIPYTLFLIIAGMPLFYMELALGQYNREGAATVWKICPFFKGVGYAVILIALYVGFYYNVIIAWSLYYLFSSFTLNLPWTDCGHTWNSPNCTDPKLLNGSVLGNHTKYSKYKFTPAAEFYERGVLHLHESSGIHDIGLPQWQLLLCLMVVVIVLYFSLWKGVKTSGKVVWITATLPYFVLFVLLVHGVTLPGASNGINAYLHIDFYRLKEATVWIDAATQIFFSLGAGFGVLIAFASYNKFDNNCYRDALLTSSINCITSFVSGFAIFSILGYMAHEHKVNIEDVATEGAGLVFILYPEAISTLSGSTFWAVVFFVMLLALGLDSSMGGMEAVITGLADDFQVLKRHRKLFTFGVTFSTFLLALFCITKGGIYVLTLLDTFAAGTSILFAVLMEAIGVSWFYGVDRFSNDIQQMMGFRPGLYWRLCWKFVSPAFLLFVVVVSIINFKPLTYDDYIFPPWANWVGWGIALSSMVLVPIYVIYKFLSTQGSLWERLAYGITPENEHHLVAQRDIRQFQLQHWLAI
ASSAY TEXT: fluorescence-based norepinephrine reuptake inhibition assay (Tsuruda et al. 2010; data indicated by an asterisk)
Format: cell-based
Parameters: expressed in transfected cells; host or cells: HEK-293
TEST CONDITIONS: norepinephrine reuptake inhibition, fluorescence-based assay (values with asterisk); read-out: NET pIC50 (converted)

# input Endpoint output: IC50 of `Cc1ccc(O[C@@H](C2CC2)[C@H]2CCNC2)c(F)c1F` . Value?
# output ≤ 10 nM

# input What value of measured IC50 is listed for `Cc1c(Cl)cccc1O[C@@H](CC(C)C)[C@H]1CCNC1` ?
# output ≤ 10 nM

# input Which IC50 is listed for `Fc1ccc(Cl)c(F)c1O[C@H](C1CC1)[C@H]1CCNC1` ?
# output ≤ 10 nM

# input Given the entry `Fc1c(Cl)cccc1O[C@@H](C1CC1)[C@H]1CCNC1` , report its measured IC50.
# output ≤ 10 nM

# input Could you tell me which IC50 is on file for `CC[C@H](Oc1cc(F)cc(Cl)c1)[C@H]1CCNC1` ?
# output ≤ 10 nM

# input Tell me the measured IC50 of `CC(C)C[C@@H](Oc1cccc2ccccc12)[C@H]1CCNC1` , please.
# output ≤ 10 nM

# input Can you share its IC50? I mean this compound: `Cc1cc(O[C@H](C(C)C)[C@H]2CCNC2)ccc1Cl`
# output ≤ 100 nM

# input Requested field: IC50. Item: `CC(C)[C@@H](Oc1ccc(Cl)cc1Cl)[C@@H]1CCNC1`
# output ≤ 100 nM

# input Look up IC50: `CC[C@H](Oc1cc(C)c(Cl)c(C)c1)[C@H]1CCNC1`
# output ≤ 100 nM

----------
ASSAY SYSTEM: hSERT (Homo sapiens, UniProt P31645)
Sequence (P31645 whole entry): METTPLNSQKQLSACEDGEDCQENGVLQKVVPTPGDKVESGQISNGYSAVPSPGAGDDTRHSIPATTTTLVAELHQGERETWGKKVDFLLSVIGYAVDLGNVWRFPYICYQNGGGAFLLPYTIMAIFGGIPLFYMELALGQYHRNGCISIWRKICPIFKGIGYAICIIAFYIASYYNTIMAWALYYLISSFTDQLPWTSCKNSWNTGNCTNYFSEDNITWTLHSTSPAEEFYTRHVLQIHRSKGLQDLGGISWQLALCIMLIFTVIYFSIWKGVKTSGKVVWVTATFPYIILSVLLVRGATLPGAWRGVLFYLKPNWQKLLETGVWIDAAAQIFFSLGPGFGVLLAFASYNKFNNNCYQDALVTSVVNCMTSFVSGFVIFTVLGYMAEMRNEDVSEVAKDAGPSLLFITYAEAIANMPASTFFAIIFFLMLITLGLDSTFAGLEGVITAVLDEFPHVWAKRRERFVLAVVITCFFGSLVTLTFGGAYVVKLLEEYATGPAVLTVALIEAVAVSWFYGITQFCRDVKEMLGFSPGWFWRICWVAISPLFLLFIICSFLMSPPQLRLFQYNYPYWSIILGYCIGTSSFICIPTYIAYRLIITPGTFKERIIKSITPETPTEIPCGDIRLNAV
ASSAY TEXT: hSERT neurotransmitter uptake assay (3H-5-HT), Assay 2
Assay type: cell-based
Set-up: expressed in transfected cells; host or cells: HEK-293
TEST CONDITIONS: serotonin reuptake inhibition, 3H-5-HT uptake, HEK-293 hSERT cells (values without asterisk); read-out: SERT pIC50 (converted)
I'd be grateful if you could share measured IC50 for these entries.

# input Dear colleague, I am looking for the recorded IC50 of the following molecule: `CC[C@H](Oc1cc(F)c(Cl)cc1OC)[C@H]1CCNC1`
# output ≤ 100 nM

# input For the molecule `CCC[C@H](Oc1ccc(Cl)c(F)c1)[C@H]1CCNC1` , what IC50 is on record?
# output ≤ 10 nM

# input Look up IC50 for this molecule: `CCC[C@H](Oc1c(F)ccc(OC)c1Cl)[C@H]1CCNC1`
# output ≤ 10 nM

# input So what's the measured IC50 for this one? `CC(C)[C@H](Oc1ccc(Cl)c(Cl)c1)[C@H]1CCNC1`
# output ≤ 10 nM

# input Fill in: IC50 of `CC[C@H](Oc1ccc(Cl)c(F)c1)[C@H]1CCNC1` is ___
# output ≤ 10 nM

# input What does the data say about its IC50? Entry: CC(C)CC(Oc1c(Cl)c(F)cc(F)c1Cl)C1CCNC1 (centres unmarked)
# output ≤ 10 nM

# input What value of IC50 has been recorded for this entry: `Clc1cccc(Cl)c1O[C@@H](C1CCCCC1)[C@H]1CCNC1`
# output ≤ 100 nM

# input Which IC50 value is on record for `CC(C)C[C@@H](Oc1cc(Cl)cc(Cl)c1)[C@H]1CCNC1` ?
# output ≤ 10 nM

# input Returns the measured IC50 for the input molecule. Input: `CCC[C@H](Oc1cccc(Cl)c1Cl)[C@H]1CCNC1`
# output ≤ 10 nM

# input Given `CC[C@H](Oc1ccc(Cl)cc1Cl)[C@H]1CCNC1` , state its recorded IC50.
# output ≤ 10 nM

# input Recorded IC50 of `CC(C)C[C@H](Oc1ccc(Cl)cc1)[C@H]1CCNC1` , please.
# output ≤ 10 nM

# input Requested field: IC50. Item: `CC(C)[C@@H](Oc1cccc(Cl)c1Cl)[C@@H]1CCNC1`
# output ≤ 10 nM

# input For the molecule shown here, `CC[C@H](Oc1c(F)cc(Cl)cc1F)[C@H]1CCNC1` , give the reported IC50.
# output ≤ 10 nM

# input Could you share which IC50 value was measured for `CC[C@H](Oc1ccc(Cl)cc1)[C@H]1CCNC1` ?
# output ≤ 10 nM

# input What does the data say about its IC50? Entry: `COc1ccc(F)c(O[C@H](C2CC2)[C@H]2CCNC2)c1Cl`
# output ≤ 10 nM

# input Requested read-out: IC50. Entry: `CC[C@H](Oc1c(F)cccc1Cl)[C@H]1CCNC1`
# output ≤ 100 nM

# input Name the reported IC50 value associated with the molecule `CCCC[C@@H](Oc1ccccc1C(F)(F)F)[C@H]1CCNC1`
# output ≤ 100 nM

# input For `CC[C@H](Oc1ccccc1C)[C@H]1CCNC1` , what is its reported IC50?
# output ≤ 100 nM

# input // IC50 lookup, key: `CCC[C@@H](Oc1cccc2ccccc12)[C@H]1CCNC1`
# output ≤ 10 nM

# input Can you look up the measured IC50 of `Clc1ccc(Cl)c(O[C@@H](C2CC2)[C@H]2CCNC2)c1Cl` for me?
# output ≤ 100 nM

----------
Please respond with reported pKi for every item in the list.
pKi: −log10 of the molar value.

# input I'm curious: which pKi was measured for `Fc1cc(O[C@H](C2CC2)[C@@H]2CCNC2)ccc1Cl` tested on hSERT (Homo sapiens, UniProt P31645)?
# output ≥ 8.00

# input Which measured pKi belongs to CC(C)CC(Oc1cccc(C(F)(F)F)c1F)C1CCNC1 (stereo not shown) , tested on hSERT (Homo sapiens, UniProt P31645)?
# output ≥ 8.00

# input Report pKi for `CSc1ccccc1O[C@H](C1CC1)[C@H]1CCNC1` tested on hSERT (Homo sapiens, UniProt P31645).
# output ≥ 7.00

# input Fill in the recorded pKi for this compound, with hSERT (Homo sapiens, UniProt P31645) as test system: `Fc1cc(Cl)cc(F)c1O[C@@H](C1CC1)[C@H]1CCNC1`
# output ≥ 8.00

# input Record `CCC[C@@H](Oc1cccc(C)c1C)[C@@H]1CCNC1` : what is its pKi with hSERT (Homo sapiens, UniProt P31645)?
# output ≥ 8.00

# input // lookup pKi | system=hSERT (Homo sapiens, UniProt P31645) | key= `Cc1cc(O[C@@H](C2CC2)[C@H]2CCNC2)c(Cl)cc1Cl`
# output ≥ 8.00

# input Kindly state the measured pKi obtained for `CCC[C@@H](Oc1cc(Cl)cc(Cl)c1)[C@H]1CCNC1` with hSERT (Homo sapiens, UniProt P31645).
# output ≥ 8.00

# input Lab note: need pKi for `CCC[C@@H](Oc1cccc(Cl)c1Cl)[C@H]1CCNC1` on hSERT (Homo sapiens, UniProt P31645), anyone have it?
# output ≥ 8.00

# input Which measured pKi belongs to `Clc1cccc(O[C@@H](C2CC2)[C@H]2CCNC2)c1Cl` , tested on hSERT (Homo sapiens, UniProt P31645)?
# output ≥ 8.00

# input # query: pKi | item `CCCC[C@@H](Oc1ccccc1C(F)(F)F)[C@H]1CCNC1` | system: hSERT (Homo sapiens, UniProt P31645)
# output ≥ 8.00

# input Give hSERT (Homo sapiens, UniProt P31645) pKi for `CCCC[C@@H](Oc1ccc(F)cc1)[C@H]1CCNC1`
# output ≥ 8.00

# input Which pKi is reported with hSERT (Homo sapiens, UniProt P31645) for this entry: `COc1cc(Cl)ccc1O[C@@H](C(C)C)[C@H]1CCNC1` ?
# output ≥ 8.00

# input # get_value(readout= pKi, system= hSERT (Homo sapiens, UniProt P31645)) for `Fc1ccc(Cl)c(Cl)c1O[C@@H](C1CC1)[C@H]1CCNC1`
# output ≥ 8.00

# input Field: pKi (hSERT (Homo sapiens, UniProt P31645)). Entry: `COc1ccc(F)c(O[C@H](C2CC2)[C@H]2CCNC2)c1Cl`
# output ≥ 8.00

# input Lab note: need pKi with hSERT (Homo sapiens, UniProt P31645) for entry `CCC[C@H](Oc1ccc(F)c(F)c1F)[C@H]1CCNC1` , please look it up.
# output ≥ 8.00

# input Reported pKi for hSERT (Homo sapiens, UniProt P31645), given `CC(C)C[C@H](Oc1cccc(Cl)c1C(F)(F)F)[C@@H]1CCNC1` ?
# output ≥ 8.00

# input Request: pKi, test system hSERT (Homo sapiens, UniProt P31645), entry `FC(F)(F)c1cc(Cl)ccc1O[C@H](C1CC1)[C@@H]1CCNC1`
# output ≥ 7.00

# input // fetch hSERT (Homo sapiens, UniProt P31645) pKi for `C=CC[C@H](Oc1cccc(Cl)c1C)[C@H]1CCNC1`
# output ≥ 8.00

# input Lab note: need pKi for `Cc1c(Cl)cccc1O[C@H](C(C)C)[C@H]1CCNC1` on hSERT (Homo sapiens, UniProt P31645), anyone have it?
# output ≥ 8.00
